molecular target: Human complement C1s enzyme (Homo sapiens); construct: purified from human serum, Complement Technology, Inc; test: Human C1s enzyme assay; settings: human complement C1s enzyme 1.16 nM, substrate Z-L-Lys-SBzl, A405; read-out: IC50 (Stars)
Sequence (P09871 438-688 limits assumed): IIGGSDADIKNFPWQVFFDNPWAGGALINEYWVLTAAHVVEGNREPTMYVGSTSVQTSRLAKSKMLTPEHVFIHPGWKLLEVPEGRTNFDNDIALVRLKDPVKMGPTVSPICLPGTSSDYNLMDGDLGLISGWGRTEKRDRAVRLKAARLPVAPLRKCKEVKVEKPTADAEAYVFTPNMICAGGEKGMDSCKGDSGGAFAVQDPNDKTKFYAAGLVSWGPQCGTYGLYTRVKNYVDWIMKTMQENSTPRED
Sequence (P09871 16-437 partner limits assumed): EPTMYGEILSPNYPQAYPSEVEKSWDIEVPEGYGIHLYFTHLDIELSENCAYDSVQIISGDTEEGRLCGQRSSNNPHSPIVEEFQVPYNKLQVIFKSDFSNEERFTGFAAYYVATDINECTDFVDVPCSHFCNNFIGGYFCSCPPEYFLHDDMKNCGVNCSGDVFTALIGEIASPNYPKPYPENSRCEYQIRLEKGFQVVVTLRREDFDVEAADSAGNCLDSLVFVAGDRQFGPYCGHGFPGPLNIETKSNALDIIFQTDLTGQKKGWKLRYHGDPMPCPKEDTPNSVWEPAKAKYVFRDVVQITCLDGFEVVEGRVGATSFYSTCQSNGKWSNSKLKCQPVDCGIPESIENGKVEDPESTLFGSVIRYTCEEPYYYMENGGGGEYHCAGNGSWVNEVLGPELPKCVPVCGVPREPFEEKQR
Measured endpoint: IC50

The examples below pair each entry with its known result.
O=C(Cn1c(-c2ccccc2)ncc(Nc2ccc3oc4ccccc4c3c2)c1=O)NCc1cc2cnccc2[nH]1 | < 100 nM
O=C(CN1C(=O)[C@H](NCCCc2ccccc2)CC[C@H]1c1ccccc1)NCc1cc2cnccc2[nH]1 | > 1000 nM

Please supply the value of reported IC50 for the item "O=C(Cn1c(-c2ccccn2)ncc(NCc2ccc3oc4ccccc4c3c2)c1=O)NCc1cc2cnccc2[nH]1"
< 100 nM

Please supply the value of reported IC50 for the item "O=C(Cn1c(-c2ccccc2)ncc(NC(=O)CCCOc2ccccc2)c1=O)NCc1cc2cnccc2[nH]1"
< 100 nM

Please supply the value of reported IC50 for the item CC1CCCN(c2ncc(N[C@H](C)c3ccc4oc5ccccc5c4c3)c(=O)n2CC(=O)NCc2cc3cnccc3[nH]2)C1 (stereo partly shown)
> 1000 nM

Please supply the value of reported IC50 for the item "O=C(Cn1c(-c2ccccc2)ncc(NC(=O)c2ccc(-c3ccsc3)cc2)c1=O)NCc1cc2cnccc2[nH]1"
< 100 nM

Please supply the value of reported IC50 for the item "Cc1ncc(NC(=O)c2csc(-c3ccccc3)n2)c(=O)n1CC(=O)NCc1cc2cnccc2[nH]1"
100 to 1000 nM
